# Tested System: T1, HLA-A*0201 molecule expressed on human T2 cells (human)
# T1 construct: also called HLA-A2
# Protocol Description: T2 cells (HLA-A*0201), peptide at 100 µM, anti-HLA-A2 flow cytometry
# Method: T2 cells (5.104 cells per well) are incubated with decreasing concentrations of peptides from 100 μM to 0.1 μM (4 points: 100 μM, 10 μM, 1 μM, 0.1 μM) in serum-free medium (TexMacs) supplemented with […] of β2 Microglobulin at 37° C. for 16 hours. Cells are then washed two times and marked with the anti-HLA-A2 antibody coupled to PE (clone BB7.2, BD Pharmagen). The relative affinity is then determined as follows: […]
Parameter: mean relative fluorescence intensity (HIV peptide = 100). Scope: all listed entries.

These solved cases illustrate the format of a correct answer.
>>> endpoint_result("PLPGLLFGA [TNFRSF13C-H3]")
"8.4 % of HIV pol 589-597 at 100 µM"
>>> endpoint_result("LLVGILHLV [CD19-B1]")
"93 % of HIV pol 589-597 at 100 µM"
>>> endpoint_result("LLFGAPALL (also called TNFRSF13-H1) [TNFRSF13C-H1]")
"92 % of HIV pol 589-597 at 100 µM"
>>> endpoint_result("IMNSLSLFA [MS4A1-H4]")
"13.4 % of HIV pol 589-597 at 100 µM"
>>> endpoint_result("LMFGAPALV [TNFRSF13C-B1]")
"90 % of HIV pol 589-597 at 100 µM"

Lab note: SLVGILHII [CD19-B11] gave mean relative fluorescence intensity (HIV peptide = 100) of 108 % of HIV pol 589-597 at 100 µM

Record LQMGGFYLL [CD19-B7] . Reported mean relative fluorescence intensity (HIV peptide = 100): 31.8 % of HIV pol 589-597 at 100 µM

Reported mean relative fluorescence intensity (HIV peptide = 100) for AMNSLSLYI [MS4A1-B4] was 115 % of HIV pol 589-597 at 100 µM

Measured mean relative fluorescence intensity (HIV peptide = 100) of FLLFLTPME [CD19-H2] : 7 % of HIV pol 589-597 at 100 µM

The binder listed as GMAFVPLLL (also called CD37-B11i) [CD37-B11] shows mean relative fluorescence intensity (HIV peptide = 100) equal to 57.8 % of HIV pol 589-597 at 100 µM

Value of mean relative fluorescence intensity (HIV peptide = 100) reported for the binder SLVGILHLQ [CD19-H1] is 0 % of HIV pol 589-597 at 100 µM

# mean relative fluorescence intensity (HIV peptide = 100) of GLAFVPLQI [CD37-H1] = 153 % of HIV pol 589-597 at 100 µM

Recorded mean relative fluorescence intensity (HIV peptide = 100) (binder YILGGLLMV [MS4A1-B12] ): 42 % of HIV pol 589-597 at 100 µM

The measured mean relative fluorescence intensity (HIV peptide = 100) associated with YVFEHPELL [CD22-B11] reads 141 % of HIV pol 589-597 at 100 µM

Measured mean relative fluorescence intensity (HIV peptide = 100), WVFEHPETL [CD22-H1] : 158 % of HIV pol 589-597 at 100 µM

// sample FLAFVPLQL (also called CD37-B1i) [CD37-B1] , its mean relative fluorescence intensity (HIV peptide = 100) was 157 % of HIV pol 589-597 at 100 µM
